Reference for the values: the supplement of paper PMC7125110

B1: glmS ribozyme (parent)
chain: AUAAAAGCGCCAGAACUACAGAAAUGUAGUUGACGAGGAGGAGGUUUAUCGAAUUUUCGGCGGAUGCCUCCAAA

Variants of: B1
Test: kcat; higher = faster cleavage; RNA array
Conditions: with glucosamine-6-phosphate
Fewer inactive variants are shown than the library holds.
quantity: kcat (s⁻¹)
The response must be a number in s⁻¹ with no trailing unit.

# mutation list, quantity, unit label, result value
measured = [
    ("A42U U55C", "kcat", "s⁻¹", 0.000267),
    ("A14U G40A", "kcat", "s⁻¹", 0.0018),
    ("G13C G29U", "kcat", "s⁻¹", 0.000169),
    ("A6U U54A C67A", "kcat", "s⁻¹", "2.15e-05"),
]

Summary for this variant, G29U A53G : kcat is 0.00448

Summary for this variant, C67U U69G : kcat is 3.43e-05

Summary for this variant, C11A G40U : kcat is 1.13e-05
